Target: α2 subunit of GABAA receptor (Rattus norvegicus, UniProt P18508+P23576)
Sequence (P23576 29-451): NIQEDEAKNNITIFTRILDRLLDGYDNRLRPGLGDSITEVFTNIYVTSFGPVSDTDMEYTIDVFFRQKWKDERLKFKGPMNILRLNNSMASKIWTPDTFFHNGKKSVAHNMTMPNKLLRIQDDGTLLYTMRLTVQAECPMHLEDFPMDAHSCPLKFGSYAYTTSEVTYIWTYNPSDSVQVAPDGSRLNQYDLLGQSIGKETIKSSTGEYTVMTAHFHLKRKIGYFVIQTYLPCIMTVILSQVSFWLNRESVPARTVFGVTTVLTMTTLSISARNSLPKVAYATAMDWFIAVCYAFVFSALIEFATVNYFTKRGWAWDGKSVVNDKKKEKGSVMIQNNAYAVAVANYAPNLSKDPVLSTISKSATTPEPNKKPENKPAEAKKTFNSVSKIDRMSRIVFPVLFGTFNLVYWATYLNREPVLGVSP
Sequence (P18508 39-466): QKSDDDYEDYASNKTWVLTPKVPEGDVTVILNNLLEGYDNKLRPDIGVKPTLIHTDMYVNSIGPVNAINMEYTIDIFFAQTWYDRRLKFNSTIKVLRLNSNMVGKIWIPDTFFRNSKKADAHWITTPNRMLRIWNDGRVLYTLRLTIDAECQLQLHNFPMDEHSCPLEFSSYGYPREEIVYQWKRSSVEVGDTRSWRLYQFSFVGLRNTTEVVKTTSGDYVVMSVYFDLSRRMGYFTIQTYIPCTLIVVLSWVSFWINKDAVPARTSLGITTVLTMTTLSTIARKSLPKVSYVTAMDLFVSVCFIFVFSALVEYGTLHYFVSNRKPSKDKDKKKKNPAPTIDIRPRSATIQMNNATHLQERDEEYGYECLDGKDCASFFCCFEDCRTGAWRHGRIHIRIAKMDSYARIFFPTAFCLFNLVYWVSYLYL
Sequence (P63079 26-473 partner): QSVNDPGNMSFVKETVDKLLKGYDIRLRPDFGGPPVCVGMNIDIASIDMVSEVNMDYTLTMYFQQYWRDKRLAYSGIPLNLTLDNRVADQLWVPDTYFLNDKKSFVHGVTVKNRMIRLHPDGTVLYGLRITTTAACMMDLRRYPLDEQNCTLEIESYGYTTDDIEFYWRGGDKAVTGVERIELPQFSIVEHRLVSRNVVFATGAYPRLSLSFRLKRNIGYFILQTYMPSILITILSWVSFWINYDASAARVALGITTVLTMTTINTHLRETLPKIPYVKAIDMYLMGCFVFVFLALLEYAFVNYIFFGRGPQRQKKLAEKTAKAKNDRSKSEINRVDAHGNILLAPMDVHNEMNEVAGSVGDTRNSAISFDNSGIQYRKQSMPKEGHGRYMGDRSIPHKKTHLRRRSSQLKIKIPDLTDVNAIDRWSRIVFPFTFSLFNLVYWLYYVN
Assay: biochemical
Conditions: read-out: % Inhib 10^−7 M
Outcome measure: inhibition at 0.1 µM (%)
Write the number in % without appending the unit.

Some solved entries appear below for comparison.
[
  {
    "Compound": "CN(c1cc(-c2ccnc3c(C(=O)c4cccs4)cnn23)ccc1Cl)S(C)(=O)=O",
    "inhibition at 0.1 µM [%]": 0
  },
  {
    "Compound": "CN(c1cc(-c2ccnc3c(C(=O)c4cccs4)cnn23)ccc1F)S(C)(=O)=O",
    "inhibition at 0.1 µM [%]": 55.9
  },
  {
    "Compound": "CN(c1cccc(-c2ccnc3c(C(=O)c4cccs4)cnn23)c1)S(C)(=O)=O [Example 3 WO2005014597, reference compound]",
    "inhibition at 0.1 µM [%]": 58.5
  },
  {
    "Compound": "CC(=O)N(C)c1cc(-c2ccnc3c(C(=O)c4cccs4)cnn23)ccc1F",
    "inhibition at 0.1 µM [%]": 67.3
  },
  {
    "Compound": "C#CCN(c1cc(-c2ccnc3c(C(=O)c4cccs4)cnn23)ccc1F)S(C)(=O)=O",
    "inhibition at 0.1 µM [%]": 97.5
  }
]

Consider now this further compound.
INPUT: Dear colleague, I am looking for the recorded inhibition at 0.1 µM of the following compound: "CC(=O)N(C)c1cc(-c2ccnc3c(C(=O)c4cccs4)cnn23)ccc1Cl"
OUTPUT: 8.4

###

Molecular target: α1 subunit of GABAA receptor (Rattus norvegicus, UniProt P18508+P62813)
Sequence (P62813 28-455): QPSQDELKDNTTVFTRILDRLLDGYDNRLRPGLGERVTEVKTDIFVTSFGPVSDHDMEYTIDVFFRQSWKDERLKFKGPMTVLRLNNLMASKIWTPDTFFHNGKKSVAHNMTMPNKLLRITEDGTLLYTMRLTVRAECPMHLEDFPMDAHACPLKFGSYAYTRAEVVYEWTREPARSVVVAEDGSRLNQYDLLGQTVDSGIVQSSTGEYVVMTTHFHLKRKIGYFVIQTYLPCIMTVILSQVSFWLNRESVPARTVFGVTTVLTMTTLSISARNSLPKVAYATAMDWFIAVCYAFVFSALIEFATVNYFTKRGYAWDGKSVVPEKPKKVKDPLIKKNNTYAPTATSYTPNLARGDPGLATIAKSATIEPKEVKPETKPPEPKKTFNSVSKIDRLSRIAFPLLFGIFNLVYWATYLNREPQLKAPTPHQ
Sequence (P18508 39-466): as the sequence (P18508 39-466) above
Sequence (P63138 26-474 partner): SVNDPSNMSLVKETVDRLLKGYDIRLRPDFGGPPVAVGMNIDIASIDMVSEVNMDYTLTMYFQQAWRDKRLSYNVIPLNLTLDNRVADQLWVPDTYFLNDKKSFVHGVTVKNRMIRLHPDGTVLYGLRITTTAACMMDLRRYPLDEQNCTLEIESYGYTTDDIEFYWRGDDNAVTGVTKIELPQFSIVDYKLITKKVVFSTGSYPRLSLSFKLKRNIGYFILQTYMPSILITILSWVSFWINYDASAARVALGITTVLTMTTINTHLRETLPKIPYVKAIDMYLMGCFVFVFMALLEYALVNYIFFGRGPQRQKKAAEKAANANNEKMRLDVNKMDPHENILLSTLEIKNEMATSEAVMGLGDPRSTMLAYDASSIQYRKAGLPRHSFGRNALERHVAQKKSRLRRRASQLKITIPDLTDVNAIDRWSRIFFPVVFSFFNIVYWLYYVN
Test: biochemical
Conditions: read-out: % Inhib 10^−7 M
Where inhibition at 0.1 µM equals or exceeds 90%, the correct label is true (1); where it does not, the label is false (0).

[
  {
    "Compound": "C#CCN(c1cccc(-c2ccnc3c(C(=O)c4cccs4)cnn23)c1)S(C)(=O)=O [Example 16 WO2005014597, reference compound]",
    "Target of assay": "α1 subunit of GABAA receptor (Rattus norvegicus, UniProt P18508+P62813)",
    "Label value": "true (1)"
  },
  {
    "Compound": "CN(c1cc(-c2ccnc3c(C(=O)c4cccs4)cnn23)ccc1Cl)S(C)(=O)=O",
    "Target of assay": "α1 subunit of GABAA receptor (Rattus norvegicus, UniProt P18508+P62813)",
    "Label value": "false (0)"
  }
]

INPUT: Could you verify whether the entry "CC(=O)N(C)c1cc(-c2ccnc3c(C(=O)c4cccs4)cnn23)ccc1Cl" shows inhibition at 0.1 µM of no less than 90%?
OUTPUT: false (0)

INPUT: Given "C#CCN(c1cc(-c2ccnc3c(C(=O)c4cccs4)cnn23)ccc1F)S(C)(=O)=O" , state whether its inhibition at 0.1 µM is at least 90%.
OUTPUT: true (1)

INPUT: For this compound, is measured inhibition at 0.1 µM 90% or higher? "CC(=O)N(C)c1cc(-c2ccnc3c(C(=O)c4cccs4)cnn23)ccc1F"
OUTPUT: true (1)

###

Target: α2 subunit of GABAA receptor (Rattus norvegicus, UniProt P18508+P23576)
Experiment: biochemical
Conditions: read-out: % Inhib 10^−5 M
inhibition at 10 µM values, listed per item
Give just the number in %; leave the unit off.

[
  {
    "Compound": "CC(=O)N(C)c1cc(-c2ccnc3c(C(=O)c4cccs4)cnn23)ccc1Cl [Preparative example 4]",
    "Unit annotation": "%",
    "Numeric value": 95.7
  },
  {
    "Compound": "CN(c1cccc(-c2ccnc3c(C(=O)c4cccs4)cnn23)c1)S(C)(=O)=O [Example 3 WO2005014597, reference compound]",
    "Unit annotation": "%",
    "Numeric value": 99.8
  },
  {
    "Compound": "CN(c1cc(-c2ccnc3c(C(=O)c4cccs4)cnn23)ccc1Cl)S(C)(=O)=O [Preparative example 8]",
    "Unit annotation": "%",
    "Numeric value": 68.9
  },
  {
    "Compound": "CC(=O)N(C)c1cc(-c2ccnc3c(C(=O)c4cccs4)cnn23)ccc1F [Preparative example 2]",
    "Unit annotation": "%",
    "Numeric value": 99.3
  },
  {
    "Compound": "CN(c1cc(-c2ccnc3c(C(=O)c4cccs4)cnn23)ccc1F)S(C)(=O)=O [Preparative example 6]",
    "Unit annotation": "%",
    "Numeric value": 97.9
  }
]

# evaluate next
INPUT: State the recorded inhibition at 10 µM for this entry: C#CCN(c1cc(-c2ccnc3c(C(=O)c4cccs4)cnn23)ccc1F)S(C)(=O)=O [Preparative example 10]
OUTPUT: 100

###

Assay: Pharmacokinetic profile after single intravenous dose in rats
Type: in vivo
Conditions: male, Sprague-Dawley, plasma, rat, mean
Parameter Vd: see the listing below.
The reply must contain the numeric value and, after it, the unit.

[
  {
    "Compound": "CC(=O)N(C)c1cccc(-c2ccnc3c(C(=O)c4cccs4)cnn23)c1 [Indiplon, reference compound]",
    "Vd": "2.32 L/kg"
  }
]

Lab note: next compound to report on.
INPUT: Fill in the blank: the reported Vd of "CC(=O)N(C)c1cc(-c2ccnc3c(C(=O)c4cccs4)cnn23)ccc1F" is ____.
OUTPUT: 7.24 L/kg

###

Assay: Metabolic stability in human hepatocytes cytosolic fraction
Assay type: in vitro ADME
Details: 120 min, 5 μM, 1.0 mg/ml human cytosol, 37° C.
Quick reference: Percent parent remaining of the listed items.
# value in %; strip the unit string

[
  {
    "Compound": "CC(=O)N(C)c1cc(-c2ccnc3c(C(=O)c4cccs4)cnn23)ccc1Cl [Preparative example 4]",
    "Percent parent remaining / %": 103
  },
  {
    "Compound": "CN(c1cc(-c2ccnc3c(C(=O)c4cccs4)cnn23)ccc1F)S(C)(=O)=O [Preparative example 6]",
    "Percent parent remaining / %": 106
  },
  {
    "Compound": "CC(=O)N(C)c1cccc(-c2ccnc3c(C(=O)c4cccs4)cnn23)c1 [Indiplon, reference compound]",
    "Percent parent remaining / %": 98
  }
]

Please examine the following record next.
INPUT: Request the reported Percent parent remaining associated with CC(=O)N(C)c1cc(-c2ccnc3c(C(=O)c4cccs4)cnn23)ccc1F [Preparative example 2]
OUTPUT: 110

###

Experiment: Metabolic stability in human hepatocytes cytosolic fraction
Type: in vitro ADME
Conditions: 60 min, 5 μM, 1.0 mg/ml human cytosol, 37° C.
Outcome measure: Percent parent remaining (%)
Give the value in % but do not write % after it.

The following compounds have reported results that may help.
[
  {
    "Compound": "CC(=O)N(C)c1cc(-c2ccnc3c(C(=O)c4cccs4)cnn23)ccc1Cl",
    "Percent parent remaining [%]": 105
  },
  {
    "Compound": "CN(c1cc(-c2ccnc3c(C(=O)c4cccs4)cnn23)ccc1F)S(C)(=O)=O",
    "Percent parent remaining [%]": 103
  },
  {
    "Compound": "CC(=O)N(C)c1cccc(-c2ccnc3c(C(=O)c4cccs4)cnn23)c1 [Indiplon, reference compound]",
    "Percent parent remaining [%]": 100
  }
]

INPUT: Which Percent parent remaining is reported for this compound? "CC(=O)N(C)c1cc(-c2ccnc3c(C(=O)c4cccs4)cnn23)ccc1F"
OUTPUT: 104

###

Assay: Pharmacokinetic profile after single intravenous dose in rats
Format: in vivo
Settings: male, Sprague-Dawley, plasma, rat, mean
Outcome measure: clearance (mL/min/kg)
Quick reminder: number only, in mL/min/kg, skip the unit.

[
  {
    "Molecule": "CC(=O)N(C)c1cc(-c2ccnc3c(C(=O)c4cccs4)cnn23)ccc1F [Preparative example 2]",
    "Unit annotation": "mL/min/kg",
    "clearance": 45.7
  }
]

# input for lookup
INPUT: Any idea what its clearance is? The molecule is CC(=O)N(C)c1cccc(-c2ccnc3c(C(=O)c4cccs4)cnn23)c1 [Indiplon, reference compound]
OUTPUT: 57.5

###

inhibition at 10 µM values, listed per item
Biological target: α1 subunit of GABAA receptor (Rattus norvegicus, UniProt P18508+P62813)
Test: biochemical
Settings: read-out: % Inhib 10^−5 M
Express your answer in %, writing the number without its unit.

# count of solved cases: 4
[
  {
    "Compound": "CN(c1cccc(-c2ccnc3c(C(=O)c4cccs4)cnn23)c1)S(C)(=O)=O [Example 3 WO2005014597, reference compound]",
    "Target of assay": "α1 subunit of GABAA receptor (Rattus norvegicus, UniProt P18508+P62813)",
    "Unit annotation": "%",
    "inhibition at 10 µM": 100
  },
  {
    "Compound": "CN(c1cc(-c2ccnc3c(C(=O)c4cccs4)cnn23)ccc1Cl)S(C)(=O)=O [Preparative example 8]",
    "Target of assay": "α1 subunit of GABAA receptor (Rattus norvegicus, UniProt P18508+P62813)",
    "Unit annotation": "%",
    "inhibition at 10 µM": 93.8
  },
  {
    "Compound": "C#CCN(c1cccc(-c2ccnc3c(C(=O)c4cccs4)cnn23)c1)S(C)(=O)=O [Example 16 WO2005014597, reference compound]",
    "Target of assay": "α1 subunit of GABAA receptor (Rattus norvegicus, UniProt P18508+P62813)",
    "Unit annotation": "%",
    "inhibition at 10 µM": 100
  },
  {
    "Compound": "CC(=O)N(C)c1cc(-c2ccnc3c(C(=O)c4cccs4)cnn23)ccc1F [Preparative example 2]",
    "Target of assay": "α1 subunit of GABAA receptor (Rattus norvegicus, UniProt P18508+P62813)",
    "Unit annotation": "%",
    "inhibition at 10 µM": 100
  }
]

INPUT: For CN(c1cc(-c2ccnc3c(C(=O)c4cccs4)cnn23)ccc1F)S(C)(=O)=O [Preparative example 6] , what is its reported inhibition at 10 µM?
OUTPUT: 99.7

INPUT: For CC(=O)N(C)c1cc(-c2ccnc3c(C(=O)c4cccs4)cnn23)ccc1Cl [Preparative example 4] , what is its reported inhibition at 10 µM?
OUTPUT: 99.8

INPUT: Return reported inhibition at 10 µM; argument: C#CCN(c1cc(-c2ccnc3c(C(=O)c4cccs4)cnn23)ccc1F)S(C)(=O)=O [Preparative example 10]
OUTPUT: 100
